# Substrate: CC(C)=CCC/C(C)=C/CC/C(C)=C/CO[P@@](=O)(O)OP(=O)(O)O
# Test details: steady-state kinetics of purified enzyme (details in supplement)
# Type: biochemical, Streptomyces coelicolor
# Test conditions: Mg2+-dependent enzyme; assay conditions in supplement
Reported property: Km (µM)
Numbers only; they are read as µM.

Answer with the recorded Km of Gd11olS (germacradien-11-ol synthase; N-terminal domain of geosmin synthase) (Streptomyces coelicolor A3(2); H320F) (protein, N-terminal domain, residues 1-366 of geosmin synthase; codon-optimized synthetic gene in pET28a, expressed in E. coli, purified to homogeneity; tag details in supplement) MTQQPFQLPHFYLPHPARLNPHLDEARAHSTTWAREMGMLEGSGVWEQSDLEAHDYGLLCAYTHPDCDGPALSLITDWYVWVFFFDDHFLEKYKRSQDRLAGKAHLDRLPLFMPLDDAAGMPEPRNPVEAGLADLWTRTVPAMSADWRRRFAVATEHLLNESMWELSNINEGRVANPVEYIEMRRKVGGAPWSAGLVEYATAEVPAAVAGTRPLRVLMETFSDAVHLRNDLFSYQREVEDEGELSNGVLVLETFFGCTTQEAADLVNDVLTSRLHQFEHTAFTEVPAVALEKGLTPLEVAAVGAYTKGLQDWQSGGHEWFMRSSRYMNKGERPLAGWQALTGPGTSAADVGALLADAVAQRARSYT only.
1.8
